Source of measurements: patent US20120252796A1

Tested target: PCSK9 (Homo sapiens, UniProt Q8NBP7)
Assay text: PCSK9-LDLR in vitro Binding Assay (ELISA)
Experimental setup: Concentration 10 μM
Sequence (Q8NBP7 153-692): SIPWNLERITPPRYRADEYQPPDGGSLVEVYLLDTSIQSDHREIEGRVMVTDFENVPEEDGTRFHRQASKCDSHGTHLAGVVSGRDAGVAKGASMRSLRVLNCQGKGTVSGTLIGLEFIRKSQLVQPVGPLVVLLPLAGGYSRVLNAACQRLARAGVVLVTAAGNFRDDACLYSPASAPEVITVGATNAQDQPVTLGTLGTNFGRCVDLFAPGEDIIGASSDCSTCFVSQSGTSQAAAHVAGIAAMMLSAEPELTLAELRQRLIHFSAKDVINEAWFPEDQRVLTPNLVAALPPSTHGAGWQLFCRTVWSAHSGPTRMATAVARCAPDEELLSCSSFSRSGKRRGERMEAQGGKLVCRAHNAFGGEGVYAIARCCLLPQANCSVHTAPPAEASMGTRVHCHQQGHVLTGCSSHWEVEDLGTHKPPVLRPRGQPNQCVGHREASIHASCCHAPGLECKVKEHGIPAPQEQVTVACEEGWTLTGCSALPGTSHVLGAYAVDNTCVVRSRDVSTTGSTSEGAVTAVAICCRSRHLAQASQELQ
Sequence (Q8NBP7 31-152 partner limits assumed): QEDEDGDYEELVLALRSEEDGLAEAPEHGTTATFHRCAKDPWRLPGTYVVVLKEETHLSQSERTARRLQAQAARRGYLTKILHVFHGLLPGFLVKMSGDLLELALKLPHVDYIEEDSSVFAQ
Measured endpoint: % Inhibition PCSK9 (%)

Please review the following examples before continuing.
[
  {
    "Molecule": "Cc1oc(-c2ccccc2)nc1CC1COC(C)(C(=O)N2CCCCC2)OC1 (centres unmarked) [Example 15]",
    "Unit descriptor": "%",
    "% Inhibition PCSK9": 11
  },
  {
    "Molecule": "Cc1oc(-c2ccccc2)nc1CC1COC(C)(C(=O)NCC(=O)N2CCOCC2)OC1 (centres unmarked) [Example 19]",
    "Unit descriptor": "%",
    "% Inhibition PCSK9": 23
  },
  {
    "Molecule": "Cc1oc(-c2ccccc2)nc1CC1COC(C)(C(=O)NCC(=O)N2CCCCC2)OC1 (centres unmarked) [Example 22]",
    "Unit descriptor": "%",
    "% Inhibition PCSK9": 25
  },
  {
    "Molecule": "Cc1oc(-c2ccccc2)nc1CCC1COC(C)(C(=O)N2CCN(C)CC2)OC1 (centres unmarked) [Example 43]",
    "Unit descriptor": "%",
    "% Inhibition PCSK9": 8
  },
  {
    "Molecule": "Cc1oc(-c2ccccc2)nc1CCC1COC(C)(C(=O)N2CCOCC2)OC1 (centres unmarked) [Example 41]",
    "Unit descriptor": "%",
    "% Inhibition PCSK9": 12
  }
]

1. Cc1oc(-c2ccccc2)nc1CCC1COC(C)(C(=O)NCC(=O)N2CCN(C)CC2)OC1 (centres unmarked) [Example 51]
2. Cc1oc(-c2ccccc2)nc1CC1COC(C)(C(=O)N2CCOCC2)OC1 (centres unmarked) [Example 12]
Enquiry: Lower value for measured % Inhibition PCSK9? Options: 1 , 2 Could you answer with the label of the item you picked?
Return: 1

====

Tested target: PCSK9 (Homo sapiens)
Assay text: SPR binding studies (BIACORE3000)
Experimental setup: 25° C., phosphate buffer pH 7.4; compounds run at 10 nM, 100 nM and 1 micro mole, concentration of the value not stated
Experimental: Instrumentation: BIACORE3000 from GE Life Sciences was used and the Interaction analysis was performed at 25° C. Buffers: phosphate buffer pH 7.4 supplied by Biacore supplemented with 0.01% dimethyl sulfoxide (DMSO) was used as running buffer during the assay. Immobilization of Ligand: Sensor chip CM5 was used for analysis. The sensor chip consists of a carboxymethyl-modified dextran polymer linked to a gold-covered glass support. […]
Sequence (Q8NBP7 153-692): as the sequence (Q8NBP7 153-692) above
Measured endpoint: Relative response (RU)

Please review the following examples before continuing.
[
  {
    "Compound": "Cc1oc(-c2ccccc2)nc1CC1COC(C)(C(=O)NCC(=O)N2CCOCC2)OC1 (stereo not drawn) [Example 19]",
    "Relative response (RU)": 14.1
  },
  {
    "Compound": "Cc1oc(-c2ccccc2)nc1CC1COC(C)(C(=O)NO)OC1 (single isomer, unassigned) [Example 6]",
    "Relative response (RU)": 2.65
  },
  {
    "Compound": "Cc1oc(C(C)(C)C)nc1CC1COC(C)(C(=O)N2CCOCC2)OC1 (stereo not drawn) [Example 73]",
    "Relative response (RU)": 2.4
  },
  {
    "Compound": "Cc1oc(-c2ccncc2)nc1CC1COC(C)(C(=O)NCC(=O)N2CCOCC2)OC1 (stereo not drawn) [Example 86]",
    "Relative response (RU)": 14.95
  },
  {
    "Compound": "Cc1oc(-c2ccccc2)nc1CC1COC(C)(C(=O)N2CCN(C)CC2)OC1 (stereo not drawn) [Example 14]",
    "Relative response (RU)": 15.81
  }
]

a. Cc1oc(-c2ccncc2)nc1CC1COC(C)(C(=O)NCC2CCOCC2)OC1 (stereo not drawn) [Example 84]
b. Cc1ccc(-c2nc(CC3COC(C)(C(=O)NO)OC3)c(C)o2)cc1 (stereo not drawn) [Example 59]
c. Cc1oc(-c2ccncc2)nc1CC1COC(C)(C(=O)NCC2CCOCC2)OC1 (stereo not drawn) [Example 85]
d. Cc1oc(-c2ccccc2)nc1CC1COC(C)(C(=O)NCCC(=O)N2CCOCC2)OC1 (stereo not drawn) [Example 26]
e. Cc1ccc(-c2nc(CC3COC(C)(C(=O)NCC4CCOCC4)OC3)c(C)o2)cc1 (stereo not drawn) [Example 64]
Enquiry: // ranking: key=Relative response (RU), reverse=True Give the order by naming the labels one after another as requested.
Return: c, d, e, a, b
(c: 17.29 RU, d: 10.3 RU, e: 3.48 RU, a: 2.23 RU, b: 1.36 RU)

====

Tested target: PCSK9 (Homo sapiens, UniProt Q8NBP7)
Assay text: PCSK9-LDLR in vitro Binding Assay (ELISA)
Experimental setup: Concentration 10 μM
Measured endpoint: % Inhibition PCSK9 (%)

[
  {
    "Molecule": "Cc1oc(-c2ccccc2)nc1CC1COC(C)(C(=O)NCC(=O)N2CCSCC2)OC1 (stereo not shown)",
    "Tested target": "PCSK9 (Homo sapiens, UniProt Q8NBP7)",
    "Obs value": 21
  },
  {
    "Molecule": "Cc1oc(-c2ccccc2)nc1CCC1COC(C)(C(=O)N2CCS(=O)(=O)CC2)OC1 (stereo not shown)",
    "Tested target": "PCSK9 (Homo sapiens, UniProt Q8NBP7)",
    "Obs value": 12
  }
]

I. Cc1oc(-c2ccccc2)nc1CC1COC(C)(C(=O)NCCC(=O)N2CCS(=O)(=O)CC2)OC1 (stereo not shown)
II. Cc1oc(-c2ccccc2)nc1CC1COC(C)(C(=O)NCC(=O)NCC2CCOCC2)OC1 (stereo not shown)
Enquiry: Hi team, can someone confirm which has the larger % Inhibition PCSK9: I or II ? Thanks. Could you answer with the label of the item you picked?
Return: II
(II: 15%, I: 8%)

====

Tested target: PCSK9 (Homo sapiens)
Assay text: PCSK9-LDLR in vitro Binding Assay (ELISA)
Experimental setup: Concentration 1 μM
Measured endpoint: inhibition at 1 µM (%)

[
  {
    "Compound": "Cc1oc(-c2ccccc2)nc1CCC1COC(C)(C(=O)NCC2CCOCC2)OC1 (stereo not shown)",
    "inhibition at 1 µM [%]": 24
  }
]

a. Cc1ccc(-c2nc(CC3COC(C)(C(=O)NCC4CCOCC4)OC3)c(C)o2)cc1 (stereo not shown)
b. Cc1oc(-c2ccccc2)nc1CCC1COC(C)(C(=O)NCC(=O)N2CCOCC2)OC1 (stereo not shown)
Enquiry: Hi team, can someone confirm which has the larger inhibition at 1 µM: a or b ? Thanks. Could you answer with the label of the item you picked?
Return: b

====

Tested target: PCSK9 (Homo sapiens, UniProt Q8NBP7)
Assay text: PCSK9-LDLR in vitro Binding Assay (ELISA)
Experimental setup: Concentration 1 μM; 1 µM
Measured endpoint: % Inhibition PCSK9 (%)

Please review the following examples before continuing.
[
  {
    "Compound": "Cc1ccc(-c2nc(CC3COC(C)(C(=O)NCC4CCOCC4)OC3)c(C)o2)s1 (centres unmarked) [Example 74]",
    "% Inhibition PCSK9, %": 4
  },
  {
    "Compound": "Cc1ccc(-c2nc(CC3COC(C)(C(=O)NCC4CCOCC4)OC3)c(C)o2)cc1 (centres unmarked) [Example 64]",
    "% Inhibition PCSK9, %": 23
  },
  {
    "Compound": "Cc1ccc(-c2nc(CC3COC(C)(C(=O)NCC4CCOCC4)OC3)c(C)o2)s1 (centres unmarked) [Example 75]",
    "% Inhibition PCSK9, %": 15
  },
  {
    "Compound": "Cc1oc(-c2ccncc2)nc1CC1COC(C)(C(=O)NCC2CCOCC2)OC1 (centres unmarked) [Example 84]",
    "% Inhibition PCSK9, %": 25
  },
  {
    "Compound": "Cc1oc(-c2ccncc2)nc1CC1COC(C)(C(=O)NCC2CCOCC2)OC1 (centres unmarked) [Example 85]",
    "% Inhibition PCSK9, %": 22
  },
  {
    "Compound": "Cc1oc(-c2ccccc2)nc1CCC1COC(C)(C(=O)NO)OC1 (centres unmarked) [Example 35]",
    "% Inhibition PCSK9, %": 18
  }
]

I. Cc1ccc(-c2nc(CC3COC(C)(C(=O)N4CCOCC4)OC3)c(C)o2)cc1 (centres unmarked) [Example 66]
II. Cc1ccc(-c2nc(CC3COC(C)(C(=O)NCC4CCOCC4)OC3)c(C)o2)cc1 (centres unmarked) [Example 63]
Enquiry: Hi team, can someone confirm which has the larger % Inhibition PCSK9: I or II ? Thanks. Could you answer with the label of the item you picked?
Return: II
